The measurements presented in this section are drawn from paper PMC5014782.

# Assay Notes: Population pharmacokinetic analysis
# Format: in vivo, human
# Run Conditions: human, plasma, oral
Quantity Name: Vd/F (L)

Molecule | Value Observed
OC[C@H]1O[C@@H](c2ccc(Cl)c(Cc3ccc(O[C@H]4CCOC4)cc3)c2)[C@H](O)[C@@H](O)[C@@H]1O [empagliflozin] | 3.14
